- Substrate: CC(C)=CCC/C(C)=C/CC/C(C)=C/CO[P@@](=O)(O)OP(=O)(O)O
- PROCEDURE TEXT: purified protein
- Assay type: biochemical, Coniophora puteana
- MEASUREMENT PARAMETERS: 25 °C, FPP 0-70 µM in methanol, 0.8–1.2 µM enzyme
ASSAY ENDPOINT: kcat/Km (M⁻¹ s⁻¹)
Numbers only, in M⁻¹ s⁻¹.

Hey, quick one: what's kcat/Km for each of these?
1. Copu9 (Coniophora puteana RWD-64-598 SS2; N228A) (protein, full-length, codon-optimized, N-terminal hexa-His tag (pET-M11), expressed in E. coli BL21 RIL DE3; homodimer; 13 N-terminal residues not visible in crystal) MSPTATFTTTSSEENAPTKFILPDLVSDCTYPLLLNDNCEPVARASEQWLIAGARLQEPRRTKFMGLLAGELTAACYPHADASHLRVCVDFMNWLFNMDDWLDDFDVDDTWGMRHCCLGAFRDPVGFETDKLGGLMSKSFFSRFRQDGGPGCTERFIHTMDLFFIAVAQQAGDRANGITPDLESYITVRRDTSGCKPCFALIEYAAGIDLPDHVIYHPTLAAMEEATADLVTWSNDIFSYNKEQVTDDTHNMIPVLMRERGLDLQGAVDFVGRLCKGTIERFETERARLPSWGPELDAQVQTYIEGLQNWIVGSLHWSFDSHRYFGKDGHAVKKHRIVKLLPKRVPQQA
2. Copu9 (Coniophora puteana RWD-64-598 SS2; P197C) (protein, full-length, codon-optimized, N-terminal hexa-His tag (pET-M11), expressed in E. coli BL21 RIL DE3; homodimer; 13 N-terminal residues not visible in crystal) MSPTATFTTTSSEENAPTKFILPDLVSDCTYPLLLNDNCEPVARASEQWLIAGARLQEPRRTKFMGLLAGELTAACYPHADASHLRVCVDFMNWLFNMDDWLDDFDVDDTWGMRHCCLGAFRDPVGFETDKLGGLMSKSFFSRFRQDGGPGCTERFIHTMDLFFIAVAQQAGDRANGITPDLESYITVRRDTSGCKCCFALIEYAAGIDLPDHVIYHPTLAAMEEATNDLVTWSNDIFSYNKEQVTDDTHNMIPVLMRERGLDLQGAVDFVGRLCKGTIERFETERARLPSWGPELDAQVQTYIEGLQNWIVGSLHWSFDSHRYFGKDGHAVKKHRIVKLLPKRVPQQA
3. Copu9 (Coniophora puteana RWD-64-598 SS2; T192N) (protein, full-length, codon-optimized, N-terminal hexa-His tag (pET-M11), expressed in E. coli BL21 RIL DE3; homodimer; 13 N-terminal residues not visible in crystal) MSPTATFTTTSSEENAPTKFILPDLVSDCTYPLLLNDNCEPVARASEQWLIAGARLQEPRRTKFMGLLAGELTAACYPHADASHLRVCVDFMNWLFNMDDWLDDFDVDDTWGMRHCCLGAFRDPVGFETDKLGGLMSKSFFSRFRQDGGPGCTERFIHTMDLFFIAVAQQAGDRANGITPDLESYITVRRDNSGCKPCFALIEYAAGIDLPDHVIYHPTLAAMEEATNDLVTWSNDIFSYNKEQVTDDTHNMIPVLMRERGLDLQGAVDFVGRLCKGTIERFETERARLPSWGPELDAQVQTYIEGLQNWIVGSLHWSFDSHRYFGKDGHAVKKHRIVKLLPKRVPQQA
4. Copu9 (Coniophora puteana RWD-64-598 SS2) (protein, full-length, codon-optimized, N-terminal hexa-His tag (pET-M11), expressed in E. coli BL21 RIL DE3; homodimer; 13 N-terminal residues not visible in crystal) MSPTATFTTTSSEENAPTKFILPDLVSDCTYPLLLNDNCEPVARASEQWLIAGARLQEPRRTKFMGLLAGELTAACYPHADASHLRVCVDFMNWLFNMDDWLDDFDVDDTWGMRHCCLGAFRDPVGFETDKLGGLMSKSFFSRFRQDGGPGCTERFIHTMDLFFIAVAQQAGDRANGITPDLESYITVRRDTSGCKPCFALIEYAAGIDLPDHVIYHPTLAAMEEATNDLVTWSNDIFSYNKEQVTDDTHNMIPVLMRERGLDLQGAVDFVGRLCKGTIERFETERARLPSWGPELDAQVQTYIEGLQNWIVGSLHWSFDSHRYFGKDGHAVKKHRIVKLLPKRVPQQA

[reply]
1. 5940
2. 5580
3. 4780
4. 7070
